# Tested on: EPHB2
# test-conditions: concentration: 1 μM, replicates: in singlicate; n = 1;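 also: KINOMEscan kinase panel screen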
Readings of %Inh for the listed compounds
value-kind: %Inh (%)

> print(dat)
                            molecule.smiles  recorded.result
1  CN1C(=O)C(Nc2cc(Cl)c(O)c(Cl)c2)=C(c2ccc(Cl)cc2)C1=O               15
2      CN1C(=O)C(Nc2ccccc2)=C(c2ccccc2)C1=O                0
3  O=C(NCCNc1ccnc(Nc2ccc(F)cc2)n1)Nc1ccc2c(c1)OCO2                0
4  CCC(=O)c1c(-c2ccccc2)c2cc(Cl)ccc2c(=O)n1Cc1cc(S(C)(=O)=O)n(CCC(C)(C)O)n1               18
5  COc1cccc(C2=C(Nc3cccc(C(=O)O)c3)C(=O)NC2=O)c1                9

----------
Readings of %Inh for the listed compounds
# System: GSK3A
# test-conditions: concentration: 1 μM, replicates: in singlicate; n = 1
value-kind: %Inh (%)

> print(dat)
                            molecule.smiles  value.kind  recorded.result
1  C[C@@H]1CC[C@H](C(=O)NC2CCCCC2)CN1c1cc(-c2ccc3c(N)n[nH]c3c2)nc(N)n1        %Inh                5
2  CCC(=O)c1c(-c2ccccc2)c2cc(Cl)ccc2c(=O)n1Cc1cc(S(C)(=O)=O)n(CC(F)F)n1        %Inh                0
3  Cc1nc(N(C)[C@H]2CN(C(=O)CC#N)CC[C@H]2C)c2cc[nH]c2n1        %Inh                9
4  COc1cc(Nc2ccnc3ccc(C(F)(F)F)cc23)cc(OC)c1OC        %Inh                0
5  COC(=O)c1c(-c2ccccc2)c2cc(Br)ccc2c(=O)n1Cc1ccc(S(C)(=O)=O)cc1        %Inh                0
6  Cc1cccc(-c2nc(Nc3ccc4c(cnn4C)c3)c3ccccc3n2)n1        %Inh               18

----------
# Tested on: CSNK2A2
# test-conditions: concentration: 1 μM, replicates: in singlicate; n = 1
value-kind: %Inh (%)

> print(dat)
                                   compound  unit.name  recorded.result
1  Cl.NS(=O)(=O)c1cccc(Nc2cc(-c3ccc(F)cc3)n[nH]2)c1          %               20
2  COc1ccc(-c2cc3c(C)nc(N)nc3n([C@H]3CC[C@H](OCCO)CC3)c2=O)cn1          %               11
3  COc1cc(Nc2nccc(N3CCC(NC(=O)C(C)c4ccc(Cl)cc4)C3)n2)cc(OC)c1OC (stereo not drawn)          %                0
4  COc1cc2nccc(Nc3cccc(Oc4ccccc4)c3)c2cc1OC.Cl          %                4
5  COc1cc2nccc(Nc3ccc(OCc4ccc(NC(C)=O)cc4)cc3)c2cc1OC.Cl          %                0
6                 CCn1c(-c2ccoc2)nc2cnccc21          %               13
7  COc1cc2ncn(-c3cc(OCCCc4ccccc4)c(C(N)=O)s3)c2cc1OC          %                3
8    CN(C)c1cc(-c2ccc3c(N)n[nH]c3c2)nc(N)n1          %               11
9  Cc1ccc(Oc2ccc(Nc3ncnc4cc[nH]c34)cc2C)cn1          %               13
